Taken from the supplement of paper PMC11780869.

Test system: Bacillus subtilis
assay-info: cleaved RNA product abundance (RNA/gDNA barcode ratio) relative to median wild-type variant (ratio to wild type); higher = more accumulation of the downstream cleavage product
experimental-parameters: experiment (reporter, strain, medium): exp 8a: truncated aprE reporter, strain BJT201 with 2% xylose (RNase J1 expressed); cleavage site: glnRA (positions -5 to +31 mutated)
// cleaved RNA product abundance lookup, one value per entry

{"residue-codes": "CGACATGTCCCGCTTCTTTCATTAATCCGTTAGCAACGGTTTTGATATATACATTTACCTTTTAAGAGGAGGAAT", "cleaved RNA product abundance": 0.515}
{"residue-codes": "CGACATGTCCCGCTTCTTTCATTATTCCGTTAGCAGCTGTTTTGCTATATACATTTACCTTTTAAGAGGAGGAAT", "cleaved RNA product abundance": 1.16}
{"residue-codes": "CGACATGTCCCGCTTCTTTCATTAATCCGTTACCGACTGTTTTGCTATATACATTTACCTTTTAAGAGGAGGAAT", "cleaved RNA product abundance": 0.269}
{"residue-codes": "CGACATGTCCCGCTTCTTTCATTAATCCGTTAGCAACTGTTTTGCTATAAATATTTACCTTTTAAGAGGAGGAAT", "cleaved RNA product abundance": 1.49}
{"residue-codes": "CGACATGTCCCGCTTCTTTCATTAATCCCTTAGCAACTGTTTTGCTATATACTTTTACCTTTTAAGAGGAGGAAT", "cleaved RNA product abundance": 0.166}
{"residue-codes": "CGACATGTCCCGCTTCTTTCATTAATCCGTTAGCAACTGTTTTGCTAAATACATTTACCTTTTAAGAGGAGGAAT", "cleaved RNA product abundance": 0.524}
{"residue-codes": "CGACATGTCCCGCTTCTTTCATTAATCCGTTAGCAACTTTTTTTCTATATACATTTACCTTTTAAGAGGAGGAAT", "cleaved RNA product abundance": 0.658}
{"residue-codes": "CGACATGTCCCGCTTCTTTCATTAATACGTTCGCAACTGTTTTGCTATATACATTTACCTTTTAAGAGGAGGAAT", "cleaved RNA product abundance": 0.216}
{"residue-codes": "CGACATGTCCCGCTTCTTTCATTAATCCGTTTGCAACTGTTTTGCTATATACAATTACCTTTTAAGAGGAGGAAT", "cleaved RNA product abundance": 0.478}
{"residue-codes": "CGACATGTCCCGCTTCTTTCATTAATCCGTAAGCAACTGTTTTGCTATATACAATTACCTTTTAAGAGGAGGAAT", "cleaved RNA product abundance": 0.478}
{"residue-codes": "CGACATGTCCCGCTTCTTTCATTAATCCGTTACCAACTGTTTTGCTATATACATTTACCGTTTAAGAGGAGGAAT", "cleaved RNA product abundance": 0.173}
{"residue-codes": "CGACATGTCCCGCTTCTTTCATTAATTCGTTAGCAAATGTTTTGCAATATACATTTACCTTTTAAGAGGAGGAAT", "cleaved RNA product abundance": 0.563}
{"residue-codes": "CGACATGTCCCGCTTCTTTCATTAATCAGTTAGCAACTGTTTTACTATATACATTTACCTTTTAAGAGGAGGAAT", "cleaved RNA product abundance": 0.611}
{"residue-codes": "CGACATGTCCCGCTTCTTTCATTAATCCGTTTGCAACTGATTTGCTATATACATTTACCTTTTAAGAGGAGGAAT", "cleaved RNA product abundance": 0.51}
{"residue-codes": "CGACATGTCCCGCTTCTTTCATTATTCCGTTAGCAACTGTTATGCTATATACATTTACCTTTTAAGAGGAGGAAT", "cleaved RNA product abundance": 0.76}
{"residue-codes": "CGACATGTCCCGCTTCTTTCATTAATACATTAGCAACTGTTTTGCTATATACATTTACCTTTTAAGAGGAGGAAT", "cleaved RNA product abundance": 0.748}
{"residue-codes": "CGACATGTCCCGCTTCTTTCATTAATCCGTTAGCAACTGTTTTGCTATATACATTAACCGTTTAAGAGGAGGAAT", "cleaved RNA product abundance": 0.934}
{"residue-codes": "CGACATGTCCCGCTTCTTTCATTAATCCGTTAACAACTGTTTTGCTATATACATTTACTTTTTAAGAGGAGGAAT", "cleaved RNA product abundance": 0.253}
{"residue-codes": "CGACATGTCCCGCTTCTTTCATTATTCCTTTAGCAACTGTTTTGCTATATACATTTACCTTTTAAGAGGAGGAAT", "cleaved RNA product abundance": 1.04}
{"residue-codes": "CGACATGTCCCGCTTCTTTCATTAATCCGTTACCAACTGTTTTCCTATATACATTTACCTTTTAAGAGGAGGAAT", "cleaved RNA product abundance": 0.203}
{"residue-codes": "CGACATGTCCCGCTTCTTTCATTAATCCGTTAGGAACTGTTTAGCTATATACATTTACCTTTTAAGAGGAGGAAT", "cleaved RNA product abundance": 0.327}
{"residue-codes": "CGACATGTCCCGCTTCTTTCATTAATCCGTTAGAAACTGTTTTGCTATAAACATTTACCTTTTAAGAGGAGGAAT", "cleaved RNA product abundance": 0.203}
{"residue-codes": "CGACATGTCCCGCTTCTTTCATTAATCCGTTAGCAACTGTTTTGCTATATACATGTACCTTTTAAGAGGAGGAAT", "cleaved RNA product abundance": 0.738}
{"residue-codes": "CGACATGTCCCGCTTCTTTCATTAACCCGTTAGCAACTGTTTTGCTATATAAATTTACCTTTTAAGAGGAGGAAT", "cleaved RNA product abundance": 0.627}
{"residue-codes": "CGACATGTCCCGCTTCTTTCATTATTCCGTTAGCATCTGTTTTGCTATATACATTTACCTTTTAAGAGGAGGAAT", "cleaved RNA product abundance": 1.34}
{"residue-codes": "CGACATGTCCCGCTTCTTTCATTAATCCGTTAGCAACTGTTTTGCTTTATACATTTAACTTTTAAGAGGAGGAAT", "cleaved RNA product abundance": 0.346}
{"residue-codes": "CGACATGTCCCGCTTCTTTCATTAATCCGTTAACAACTGTTTTGCAATATACATTTACCTTTTAAGAGGAGGAAT", "cleaved RNA product abundance": 0.185}
{"residue-codes": "CGACATGTCCCGCTTCTTTCATTACTCCGTTAGCAACTGTTTTGCTATCTACATTTACCTTTTAAGAGGAGGAAT", "cleaved RNA product abundance": 0.0823}
{"residue-codes": "CGACATGTCCCGCTTCTTTCATTATTCCGTTAGCAACAGTTTTGCTATATACATTTACCTTTTAAGAGGAGGAAT", "cleaved RNA product abundance": 1.12}
{"residue-codes": "CGACATGTCCCGCTTCTTTCATTAATCCGGTAGCAACTGTTTTGATATATACATTTACCTTTTAAGAGGAGGAAT", "cleaved RNA product abundance": 0.316}
